test system: Influenza A virus; assay: Antiviral activity against influenza A virus A/WSN/1933 (H1N1) infected in MDCK cells harbouring TamiFlu sensitive neuraminidase 274H mutant assessed as reduction in cytopathic effect by DAPI staining based analysis; type: functional, organism-based
ASSAY_METRIC: EC50 (nM)

[[record]]
molecular_string = "Cc1onc(-c2ccccc2Cl)c1C(=O)N1CCN(c2ccc([N+](=O)[O-])cc2Cl)CC1"
assay_metric = "EC50"
result = 140

